Target: OBD K5A (Streptococcus plasmid pMV158, UniProt P13921 1-131, K5A)
Test: EMSA; EMSA: 20 mM Tris-HCl pH 8.0, 5 mM DTT, 300 mM NaCl, 20 nM DNA, 20 min 25 C; footprinting same buffer; SPR: 10 mM HEPES pH 7.4, 150 mM NaCl, 3 mM EDTA, 0.005% P20
Conditions: protein: recombinant; label: 5'-Cy5 (top); blunt
Metric Name: pKd
When answering, recall that pKd equals minus log10 of the concentration in mol/L, and write that number alone.

Challenge: Tell me the measured pKd of 1DDR (dsDNA) DNA 1: AATCTCGGCGACTTTTTAGA DNA 2: TCTAAAAAGTCGCCGAGATT , please.
Response given: 5.74

# credit: paper PMC9943647
